Test system: 898857-211-R-J1-PDC complex spheroids, growth % test/control
EXPERIMENT_SUMMARY: Anticancer human tumor 898857-211-R-J1-PDC patient-derived melanoma cell line growth inhibition [RAS]; active = viability on the fitted dose curve at most 10% of control; inactive = the rest
CONDITION_PARAMETERS: second compound 0.00949 µM; first compound 3.16 µM
Returns: one label drawn from active, inactive

Fill in: this test's call for CCC(CC)c1cc(NC2CCC(N)C2)n2nccc2n1 (centres undefined) + CCn1c(-c2cccnc2C(C)OC)c2c3cc(ccc31)N1CCOC(CC(NC(=O)C(C(C)C)N(C)C(=O)C3(F)CCN(C(=O)C#CC(C)(C)N(C)C)CC3)C(=O)N3CCCC(N3)C(=O)OCC(C)(C)C2)C1 is ___
active

Any idea what this test logged for NC1c2ccccc2OC12CCN(c1cnc3c(N4CCCc5ncccc54)n[nH]c3n1)CC2 (centres undefined) + CCn1c(-c2cc(N3CCN(C)CC3)cnc2C(C)OC)c2c3cc(ccc31)-c1csc(n1)CC(NC(=O)C1CC1C)C(=O)N1CCCC(N1)C(=O)OCC(C)(C)C2 ?
inactive

What is the recorded call for this compound in the test? Cc1nc(N2CCC3(CC2)COC(C)C3N)c(CO)nc1Sc1ccnc(N)c1Cl (centres undefined) + CCn1c(-c2cccnc2C(C)OC)c2c3cc(ccc31)N1CCOC(CC(NC(=O)C(C(C)C)N(C)C(=O)C3(F)CCN(C(=O)C#CC(C)(C)N(C)C)CC3)C(=O)N3CCCC(N3)C(=O)OCC(C)(C)C2)C1
inactive

Dear colleague, could you share the recorded outcome for CC(C)NCC(C(=O)N1CCN(c2ncnc3c2C(C)CC3O)CC1)c1ccc(Cl)cc1 (centres undefined) + CCn1c(-c2cccnc2C(C)OC)c2c3cc(ccc31)N1CCOC(CC(NC(=O)C(C(C)C)N(C)C(=O)C3(F)CCN(C(=O)C#CC(C)(C)N(C)C)CC3)C(=O)N3CCCC(N3)C(=O)OCC(C)(C)C2)C1 when you have a moment?
inactive

###

Quick list: viability, T/C per entry.
System: 898857-211-R-J1-PDC complex spheroids, growth % test/control
EXPERIMENT_SUMMARY: Anticancer human tumor 898857-211-R-J1-PDC cell line growth inhibition [RAS];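 note: spheroids exposed to compound for seven days before readout; 100% = DMSO vehicle control wells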
CONDITION_PARAMETERS: second compound 3.16 µM; first compound 1 µM; stronger effect = lower value
Write the number in % without appending the unit.

# get_value(readout='viability, T/C', item= CC1(O)CCCC1n1c(=O)c(C(F)F)cc2cnc(NC3CCN(S(C)(=O)=O)CC3)nc21 (stereo not drawn) + C#Cc1c(F)ccc2cc(O)cc(-c3ncc4c(N5CC6CCC(C5)N6)nc(OCC56CCCN5CC(F)C6)nc4c3F)c12 )
41.5

Consider the molecule shown here: C=CC(=O)N1CCN(c2nc(OCC3CCCN3C)nc3c(F)c(-c4nc(N)cc(C)c4C(F)(F)F)c(Cl)cc23)C(C)C1 (stereo not drawn) + C#Cc1c(F)ccc2cc(O)cc(-c3ncc4c(N5CC6CCC(C5)N6)nc(OCC56CCCN5CC(F)C6)nc4c3F)c12 What is its recorded viability, T/C?
87.3

Continue with the molecule presented below.
Sample CCC(CC)c1cc(NC2CCC(N)C2)n2nccc2n1 (stereo not drawn) + C#Cc1c(F)ccc2cc(O)cc(-c3ncc4c(N5CC6CCC(C5)N6)nc(OCC56CCCN5CC(F)C6)nc4c3F)c12 — what was its viability, T/C?
55

Reference source for all entries: PubChem BioAssay AID2060882
